Attribution: ChEMBL document CHEMBL3769308

- Assayed Target: Melanin-concentrating hormone receptor 1 (Rattus norvegicus, UniProt P97639)
- Sequence (P97639 whole entry, the tested form may be a part): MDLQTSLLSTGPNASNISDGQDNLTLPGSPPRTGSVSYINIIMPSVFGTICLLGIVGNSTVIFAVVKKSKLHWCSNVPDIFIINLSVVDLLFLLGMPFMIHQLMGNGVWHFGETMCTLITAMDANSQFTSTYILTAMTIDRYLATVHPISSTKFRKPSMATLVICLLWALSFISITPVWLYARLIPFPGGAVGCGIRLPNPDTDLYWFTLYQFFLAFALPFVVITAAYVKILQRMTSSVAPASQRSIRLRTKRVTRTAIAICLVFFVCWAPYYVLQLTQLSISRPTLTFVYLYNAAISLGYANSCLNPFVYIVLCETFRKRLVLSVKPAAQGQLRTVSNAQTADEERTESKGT
- Test Summary: Displacement of [125I]-MCH (4 to 19 residues) from rat MCHR1 expressed in CHO cell membranes after 1 hr by liquid scintillation counting analysis
Observed Property: pIC50
The value called pIC50 is obtained by taking minus log10 of the concentration in mol/L.

Lookup: Please look up its pIC50: `Cc1c(C2CC2)nc2ccc(-n3ccc(OCc4ccc(Cl)cn4)cc3=O)cn12`
Found: 7.72

Lookup: Recorded pIC50 for `Cc1c(C2CC2)nc2ccc(-n3ccc(OCc4ccc(F)cc4)cc3=O)cn12` , please?
Found: 7.55

Lookup: Fill blank: measured pIC50 of the molecule `Cc1c(C2CC2)nc2ccc(-n3ccc(OCc4cccs4)cc3=O)cn12` is ____.
Found: 6.89

Lookup: Look up pIC50 for this molecule: `Cc1c(C2CC2)nc2ccc(-n3cccc(OCc4ccc(Cl)cc4)c3=O)cn12`
Found: 6.19

Lookup: # query: pIC50 of entry `Cc1c(C2CC2)nc2ccc(-n3ccc(OCc4ccc(C(F)(F)F)cc4)cc3=O)cn12`
Found: 7.09

Lookup: Any idea what its pIC50 is? The molecule is `Cc1c(CC#N)nc2ccc(-n3ccc(OCc4ccc(F)cc4)cc3=O)cn12`
Found: 6.77

Lookup: Entry `Cc1c(C2CC2)nc2ccc(-n3cnc(OCc4ccc(Cl)cc4)cc3=O)cn12` has what pIC50?
Found: 6.85

* * *

- Test Summary: AUC (0 to 8 hrs) in Sprague-Dawley rat at 1 mg/kg, po administered through cassette dosing by LC/MS/MS analysis
- Format: ADME, organism-based
- Design: time < 8 hr, dose 1 mg/kg, route oral
- Assay Setup: in vivo
Observed Property: AUC(0-t) at 8 h (ng·h/mL)
Numbers only here, please. The scale is ng·h/mL.

Lookup: // lookup AUC(0-t) at 8 h for `Cc1c(C2CC2)nc2ccc(-n3ccc(OCc4ccc(Cl)cc4)cc3=O)cn12`
Found: 1880

* * *

- Assayed Target: UniProt:Q99705
- Test Summary: Displacement of [125I]-MCH (4 to19 residues) from human MCHR1 expressed in CHO cell membranes after 1 hr by liquid scintillation counting analysis
Would you kindly list IC50 for each of these compounds?
Note: unit nM is implicit; provide only the numeric part.

Lookup: Hello, I am looking for reported IC50 with UniProt:Q99705 for `Cc1c(C2CC2)nc2ccc(-n3ccc(OCc4ccc(C(C)C)cc4)cc3=O)cn12` . Could you help?
Found: 410

Lookup: Lab note: need IC50 for `Cc1c(C2CC2)nc2ccc(-n3ccc(OCc4ccc(C(F)(F)F)cc4)cc3=O)cn12` on UniProt:Q99705, anyone have it?
Found: 72

Lookup: Short answer please: IC50, UniProt:Q99705, entry `CCc1nc2ccc(-n3ccc(OCc4ccccc4)cc3=O)cn2c1C`
Found: 120

Lookup: Give the reported IC50 for `Cc1c(C2CC2)nc2ccc(-n3ccc(OCc4ccccn4)cc3=O)cn12` (system: UniProt:Q99705).
Found: 240

Lookup: UniProt:Q99705 / IC50 / `Cc1c(C2CC2)nc2ccc(-n3cnc(OCc4ccc(Cl)cc4)cc3=O)cn12` : value?
Found: 150

Lookup: Record lookup: for UniProt:Q99705, what IC50 belongs to `Cc1nc2ccc(NC(=O)COc3ccc(OC(F)(F)F)cc3)cn2c1C` ?
Found: 3.8

* * *

- Test Summary: Oral bioavailability in Sprague-Dawley rat at 1 mg/kg, administered through cassette dosing by LC/MS/MS analysis
- Format: ADME, organism-based
- Assay Setup: in vivo
Observed Property: bioavailability (%)
Please reply with the bare figure in % and do not write the unit itself.

Lookup: Could you tell me which bioavailability is on file for `Cc1c(C2CC2)nc2ccc(-n3ccc(OCc4ccc(Cl)cc4)cc3=O)cn12` ?
Found: 58

* * *

- Assayed Target: UniProt Q99705
- Test Summary: Displacement of [125I]-MCH (4 to19 residues) from human MCHR1 expressed in CHO cell membranes after 1 hr by liquid scintillation counting analysis
For each of the molecules below, state its IC50.
A number alone suffices; assume nM.

Lookup: Field: IC50 (UniProt Q99705). Entry: `Cc1c(C2CC2)nc2ccc(-n3cccc(Oc4ccc(OC(F)(F)F)cc4)c3=O)cn12`
Found: 270

Lookup: Value wanted: IC50 (UniProt Q99705) of entry `Cc1cn(-c2ccc3nc(C4CC4)c(C)n3c2)c(=O)cc1OCc1ccc(Cl)cc1`
Found: 210

Lookup: Short answer please: IC50, UniProt Q99705, entry `Cc1c(C2CC2)nc2ccc(-n3cccc(OCc4ccc(Cl)cc4)c3=O)cn12`
Found: 990

Lookup: Form entry - test system: UniProt Q99705; read-out: IC50; molecule: `Cc1c(CC#N)nc2ccc(-n3ccc(OCc4ccc(F)cc4)cc3=O)cn12`
Found: 180

* * *

- Assayed Target: Melanin-concentrating hormone receptor 1 (Rattus norvegicus, UniProt P97639)
- Test Summary: Displacement of [125I]-MCH (4 to 19 residues) from rat MCHR1 expressed in CHO cell membranes after 1 hr by liquid scintillation counting analysis
Observed Property: log10(IC50) (log10 of the value in nM)
Scale: decimal log of IC50, IC50 in nM.

Lookup: Which log10(IC50) is reported for this compound? `Cc1c(C2CC2)nc2ccc(-n3ccc(OCc4ccccc4)cc3=O)cn12`
Found: 1.45

Lookup: log10(IC50) lookup needed for `Cc1c(C2CC2)nc2ccc(-n3ccc(OCc4ccccn4)cc3=O)cn12` , thanks.
Found: 2.18

Lookup: So what's the measured log10(IC50) for this one? `Cc1c(C2CC2)nc2ccc(-n3cccc(Oc4ccc(OC(F)(F)F)cc4)c3=O)cn12`
Found: 2.38

Lookup: For `Cc1c(C2CC2)nc2ccc(-n3ccc(OCc4ccc(Cl)cc4)cc3=O)cn12` , what is its reported log10(IC50)?
Found: 1.30

Lookup: Given the compound Cc1c(C2CC2)nc2ccc(-n3ccc4c(c3=O)CCC(c3ccc(Cl)cc3)O4)cn12 (stereo not given) , what is its reported log10(IC50)?
Found: 1.79

Lookup: Entry `Cc1cn(-c2ccc3nc(C4CC4)c(C)n3c2)c(=O)cc1OCc1ccc(Cl)cc1` has what log10(IC50)?
Found: 2.18

Lookup: What value of log10(IC50) has been reported for the following compound? `Cc1c(C2CC2)nc2ccc(-n3ccc(OCc4csc(C(F)(F)F)c4)cc3=O)cn12`
Found: 1.18

Lookup: // lookup log10(IC50) for `Cc1c(C2CC2)nc2ccc(-n3ncc(OCc4ccc(Cl)cc4)cc3=O)cn12`
Found: 2.04

Lookup: // returns reported log10(IC50) for input `CCc1nc2ccc(-n3ccc(OCc4ccccc4)cc3=O)cn2c1C`
Found: 2.08

Lookup: Need log10(IC50), item `Cc1c(C2CC2)nc2ccc(-n3ccc(OCc4csc(Cl)c4)cc3=O)cn12`
Found: 0.88

Lookup: Which log10(IC50) is listed for `Cc1c(C2CC2)nc2ccc(-n3ccc(Oc4ccc(OC(F)(F)F)cc4)cc3=O)cn12` ?
Found: 2.98

Lookup: # get_value(readout='log10(IC50)', item= `Cc1c(C2CC2)nc2ccc(NC(=O)COc3ccc(OC(F)(F)F)cc3)cn12` )
Found: 0.80

Lookup: I would be grateful if you could share the reported log10(IC50) for `Cc1c(C2CC2)nc2ccc(-n3ccc(OCc4ccc(Cl)cc4)nc3=O)cn12` .
Found: 1.48

* * *

- Assayed Target: Melanin-concentrating hormone receptor 1 (Rattus norvegicus)
- Test Summary: Displacement of [125I]-MCH (4 to 19 residues) from rat MCHR1 expressed in CHO cell membranes after 1 hr by liquid scintillation counting analysis
Field: IC50. Provide a value for each of the compounds that follow.

Lookup: Provide the documented IC50 with Melanin-concentrating hormone receptor 1 (Rattus norvegicus) as the system for `Cc1c(C(=O)N(C)C)nc2ccc(-n3ccc(OCc4ccc(F)cc4)cc3=O)cn12`
Found: > 1000 nM

Lookup: I'm curious: which IC50 was measured for `Cc1c(C#N)nc2ccc(-n3ccc(OCc4ccc(F)cc4)cc3=O)cn12` tested on Melanin-concentrating hormone receptor 1 (Rattus norvegicus)?
Found: > 1000 nM

Lookup: Lab note: need IC50 with Melanin-concentrating hormone receptor 1 (Rattus norvegicus) for entry `CC(=O)c1nc2ccc(-n3ccc(OCc4ccc(F)cc4)cc3=O)cn2c1C` , please look it up.
Found: > 1000 nM

* * *

- Assayed Target: Melanin-concentrating hormone receptor 1 (Homo sapiens, UniProt Q99705)
- Sequence (Q99705 whole entry, the tested form may be a part): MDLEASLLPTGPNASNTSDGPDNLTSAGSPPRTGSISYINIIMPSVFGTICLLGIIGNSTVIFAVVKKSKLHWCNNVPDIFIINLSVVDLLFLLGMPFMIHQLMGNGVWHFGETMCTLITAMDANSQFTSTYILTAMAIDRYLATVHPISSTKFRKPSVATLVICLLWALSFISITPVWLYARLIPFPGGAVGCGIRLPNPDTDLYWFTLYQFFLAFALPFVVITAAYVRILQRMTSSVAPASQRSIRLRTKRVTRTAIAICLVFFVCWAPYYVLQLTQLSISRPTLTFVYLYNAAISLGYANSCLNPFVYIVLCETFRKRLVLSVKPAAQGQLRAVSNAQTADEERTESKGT
- Test Summary: Displacement of [125I]-MCH (4 to19 residues) from human MCHR1 expressed in CHO cell membranes after 1 hr by liquid scintillation counting analysis
pIC50: −log10 of the molar value.
Observed Property: pIC50

Lookup: Field request: pIC50 | item: `Cc1c(C2CC2)nc2ccc(-n3ccc(OCc4cccnc4)cc3=O)cn12`
Found: < 6.00

Lookup: For the molecule `Cc1c(C2CC2)nc2ccc(-n3ccc(Oc4ccc(OC(F)(F)F)cc4)cc3=O)cn12` , what pIC50 is on record?
Found: < 6.00

Lookup: If you can, please state the reported pIC50 value of `Cc1c(CO)nc2ccc(-n3ccc(OCc4ccc(F)cc4)cc3=O)cn12` .
Found: < 6.00

Lookup: Item under review: `CC(=O)c1nc2ccc(-n3ccc(OCc4ccc(F)cc4)cc3=O)cn2c1C` . Reported pIC50?
Found: < 6.00
